System: Pseudomonas aeruginosa
Test: Antimicrobial activity against Pseudomonas aeruginosa harboring deltapvdF-deltapchA mutant assessed as inhibition of bacterial growth by measuring minimal inhibitory concentration incubated for 48 hrs in presence of iron-depleted CAA medium
Type: functional
Where a SMILES comes first, the peptide text is derived from it. The star is where a group is joined. X1 = O=C(COCC(=O)*)NCCOCCOCCOCCOCCOCCOCCOCCOCCn1cc(CCCC(=O)Nc2c(CNC(=O)c3cccc(O)c3O)cc(CNC(=O)c3cccc(O)c3O)cc2CNC(=O)c2cccc(O)c2O)nn1

MOLECULE: CC[C@H](C)[C@H](NC(=O)[C@H](CCSC)NC(=O)[C@@H](NC(=O)[C@H](C)NC(=O)CNC(=O)[C@H](CC(C)C)NC(=O)[C@H](CC(=O)O)NC(=O)[C@@H](NC(=O)[C@H](CO)NC(=O)[C@H](CO)NC(=O)[C@H](CC(=O)O)NC(=O)c1cccc(O)c1O)C(C)C)[C@@H](C)O)C(=O)N[C@H](C(=O)N[C@@H](CO)C(=O)N[C@@H](CC(N)=O)C(=O)N[C@@H](CCC(N)=O)C(=O)N[C@@H](CC(C)C)C(=O)NCC(=O)N[C@H](C(=O)N[C@H](C(=O)N[C@@H](CCCCN)C(N)=O)[C@@H](C)CC)[C@@H](C)O)[C@@H](C)O
MIC: > 64 µM
--
MOLECULE: CN[C@@H]1[C@@H](O)[C@@H](O[C@@H]2[C@@H](O)[C@H](O[C@H]3O[C@H](C(C)N)CC[C@H]3N)[C@@H](N)C[C@H]2N)OC[C@]1(C)O (some centres undefined) [GENTAMICIN C2]
MIC: 4 µM
--
MOLECULE: CC[C@H](C)[C@H](NC(=O)[C@H](CCSC)NC(=O)[C@@H](NC(=O)[C@H](C)NC(=O)CNC(=O)[C@H](CC(C)C)NC(=O)[C@H](CC(=O)O)NC(=O)[C@@H](NC(=O)COCC(=O)NCCOCCOCCOCCOCCOCCOCCOCCOCCn1cc(CCCC(=O)Nc2c(CNC(=O)c3cccc(O)c3O)cc(CNC(=O)c3cccc(O)c3O)cc2CNC(=O)c2cccc(O)c2O)nn1)C(C)C)[C@@H](C)O)C(=O)N[C@H](C(=O)N[C@@H](CO)C(=O)N[C@@H](CC(N)=O)C(=O)N[C@@H](CCCCN)C(N)=O)[C@@H](C)O (X1-VDLGATMITSNK-NH2)
MIC: > 64 µM
--
MOLECULE: CC(C)[C@H](NC(=O)[C@@H](NC(=O)[C@@H](NC(=O)[C@H](CCC(N)=O)NC(=O)[C@H](CCC(=O)O)NC(=O)COCC(=O)NCCOCCOCCOCCOCCOCCOCCOCCOCCn1cc(CCCC(=O)Nc2c(CNC(=O)c3cccc(O)c3O)cc(CNC(=O)c3cccc(O)c3O)cc2CNC(=O)c2cccc(O)c2O)nn1)[C@@H](C)O)C(C)C)C(=O)N[C@@H](C)C(=O)N[C@H](C(=O)N[C@@H](C)C(=O)N[C@@H](CCC(N)=O)C(=O)N[C@@H](CCCCN)C(N)=O)[C@@H](C)O (X1-EQTVVATAQK-NH2)
MIC: > 64 µM
